# Tested on: NCI-H23 lung
# test.name: NCI tumour cell line growth inhibition, 48 h
Answer each item with its documented TGI.
Answers are plain numbers, in µM.

Field: example entries. Status: answers known.
CCCN1C(=O)/C(=C/c2ccc(SC(F)(F)F)cc2)SC1=Nc1ccc(OC)cc1 :: 30.2
Nc1nc(Sc2ccc([N+](=O)[O-])c3nonc23)c2[nH]cnc2n1 :: 10.9
O=C(/C=C/c1ccc(O)c(O)c1)N1CCN(c2ccc(Cl)cc2)CC1 :: 32
Cc1cc(N2CCC(N3CCCC3)CC2)nc(/N=C(\N)Nc2ccc(Cl)c(Cl)c2)n1 :: 6.61
CCOC(=O)Cc1c(C(=O)OCC)[n+](=O)c2cc(Cl)c(Cl)cc2n1[O-] :: 5.49

In the following, a different molecule is considered.
The molecule listed as COC1C(OC(=O)c2ccc(C)[nH]2)C(O)C(Oc2ccc3c(O)c(NC(=O)c4ccc(O)c(CC=C(C)C)c4)c(=O)oc3c2Cl)OC1(C)C (stereo not given) shows TGI equal to 45.5

====

# System: UACC-62 melanoma
# test.name: NCI tumour cell line growth inhibition, 48 h
assay.endpoint: TGI

C/C(=C\C(=O)Nc1ccc2n[nH]nc2c1)Nc1ccc2n[nH]nc2c1 :: > 100 µM
NC1=Nc2cc(C(F)(F)F)ccc2Sc2nc3ccccc3n21 :: > 100 µM

In the following, a different compound is considered.
The compound listed as CNC(=S)N/N=C/C(C)=N/NC(=S)NC shows TGI equal to > 100 µM

====

Answer each item with its documented TGI.
# Tested on: HT29 colon
# test.name: NCI tumour cell line growth inhibition, 48 h

Field: example entries. Status: answers known.
C[N+](C)(C)CC1CCC(C[N+](C)(C)C)C1=NO (stereo not drawn) :: > 100 µM
CCOC(=O)C1=C(O)CC(=O)N=C1N1CCCC1 :: > 100 µM
CCOC(=O)c1ccc(N(CCOS(C)(=O)=O)CCOS(C)(=O)=O)cc1 :: > 100 µM
COc1ccc(-c2nc3ccccc3c(=O)[nH]2)cc1 :: > 100 µM
CC(C)(C)OC(=O)Cn1ncn(NC(=O)Cc2ccccc2)c1=S :: > 10 µM
CC(C)(Oc1ccc(-c2cccc3ccccc23)cc1)C(=O)O :: > 100 µM
CNC(=O)[C@H](Cc1ccccc1)NC(=O)N(CCC#N)CCN(C(=O)N[C@@H](Cc1ccccc1)C(=O)OC)c1ccccc1 :: > 100 µM
COC(=O)c1c(C)nc(C)c2c1C(=O)C(Br)=C(NCc1ccccc1)C2=O :: 7.96 µM
CC1NOC(=O)C1N=Nc1cccc(Cl)c1 (stereo not drawn) :: 77 µM
COC(=O)c1ccccc1CC1Cc2c(C)ccc(C)c2C1=O (stereo not drawn) :: 61.6 µM

For each listed entry, give its TGI.
1. Nc1ccc(CC[C@H]2CCC/C=C/[C@@H]3C[C@H](O)C[C@H]3[C@H](O)/C=C/C(=O)O2)cc1
2. O=c1[nH]c2cc(Cl)ccc2nc1/C(=N\Nc1ccccc1)C(O)c1ccc2c(c1)OCO2 (stereo not drawn)
3. CC[C@H](C)[C@H](NC(=O)[C@H]1CCCCN1C)C(=O)N(C)[C@H](CCc1nc(C(=O)N[C@@H](Cc2ccccc2)C[C@H](C)C(=O)O)cs1)C(C)C

Marked response:
1: 0.577 µM; 2: > 100 µM; 3: > 25 µM

For each listed entry, give its TGI.
1. O=[N+]([O-])c1ccccc1N=Nc1c(O)[nH]c2c(Cl)cccc12
2. Clc1cc(N/N=C(\c2ccccc2)c2ccccn2)ncn1
3. CC(C)(O)C1COC2=C1C(=O)c1ccccc1C2=O (stereo not drawn)
4. ClC1=NSSC1(Cl)Cl
5. Cc1cc(NC(=O)NCc2ccc(N3C(N)=NC(N)=NC3(C)C)cc2)ccc1S(=O)(=O)F

Marked response:
1. 99.4 µM
2. > 100 µM
3. > 100 µM
4. > 100 µM
5. > 100 µM
